Molecular target: Substance-P receptor (Rattus norvegicus, UniProt P14600)
Sequence (P14600 whole entry): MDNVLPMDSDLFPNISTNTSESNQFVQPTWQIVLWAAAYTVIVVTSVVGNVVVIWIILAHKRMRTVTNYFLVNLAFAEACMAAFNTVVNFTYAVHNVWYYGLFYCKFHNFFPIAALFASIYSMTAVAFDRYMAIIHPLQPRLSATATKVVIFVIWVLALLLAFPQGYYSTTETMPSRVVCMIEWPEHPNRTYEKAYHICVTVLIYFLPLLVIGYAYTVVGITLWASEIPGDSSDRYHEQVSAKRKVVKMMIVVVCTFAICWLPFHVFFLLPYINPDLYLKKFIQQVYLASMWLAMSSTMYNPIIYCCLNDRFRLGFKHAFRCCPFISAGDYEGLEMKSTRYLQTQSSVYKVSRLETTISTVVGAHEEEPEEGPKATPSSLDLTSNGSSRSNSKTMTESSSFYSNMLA
Assay: Concentration required to inhibit the specific binding of [125I]BH-SP to Neurokinin-1 (NK-1) receptor in rat brain synaptosomes
Non-standard residues stand in square brackets, D forms with d. Residues, ends and D or L forms follow the SMILES beside them. Gly(9-fluorenyl) = N[C@H](C(=O)O)C1c2ccccc2-c2ccccc21
Would you mind sorting the entries by IC50 according to these classes? Low = under 20 nM, Mid = from 20 nM up to 1000 nM, High = 1000 nM and over

[[record]]
compound = "CSCC[C@H](NC(=O)[C@H](CC(C)C)NC(=O)CNC(=O)[C@@H](NC(=O)[C@H](Cc1ccccc1)NC(=O)[C@H](CCC(N)=O)NC(=O)[C@H](CCC(N)=O)NC(=O)[C@@H]1CCCN1C(=O)[C@H](CCCCN)NC(=O)[C@@H]1CCCN1C(=O)[C@@H](N)CCCN=C(N)N)[C@@H]1CCc2cc3ccccc3cc21)C(N)=O"
label_value = "Mid"

[[record]]
compound = "CSCC[C@H](NC(=O)[C@H](CC(C)C)NC(=O)CNC(=O)[C@H](Cc1ccccc1)NC(=O)[C@@H](NC(=O)[C@H](CCC(N)=O)NC(=O)[C@H](CCC(N)=O)NC(=O)[C@@H]1CCCN1C(=O)[C@H](CCCCN)NC(=O)[C@@H]1CCCN1C(=O)[C@@H](N)CCCN=C(N)N)C1Cc2ccccc2C1)C(N)=O"
label_value = "High"

[[record]]
compound = "CSCC[C@H](NC(=O)[C@H](CC(C)C)NC(=O)CNC(=O)[C@@H](NC(=O)[C@H](Cc1ccccc1)NC(=O)[C@H](CCC(N)=O)NC(=O)[C@H](CCC(N)=O)NC(=O)[C@@H]1CCCN1C(=O)[C@H](CCCCN)NC(=O)[C@@H]1CCCN1C(=O)[C@@H](N)CCCN=C(N)N)C(C)(C)S(C)(=O)=O)C(N)=O"
label_value = "Low"

[[record]]
compound = "CSCC[C@H](NC(=O)[C@H](CC(C)C)NC(=O)CNC(=O)[C@H](Cc1ccccc1)NC(=O)[C@H](NC(=O)[C@H](CCC(N)=O)NC(=O)[C@H](CCC(N)=O)NC(=O)[C@@H]1CCCN1C(=O)[C@H](CCCCN)NC(=O)[C@@H]1CCCN1C(=O)[C@@H](N)CCCN=C(N)N)C1Cc2ccccc2C1)C(N)=O"
label_value = "High"

[[record]]
compound = "CSCC[C@H](NC(=O)[C@H](CC(C)C)NC(=O)CNC(=O)[C@H](Cc1ccccc1)NC(=O)[C@@H]1Cc2ccccc2CN1C(=O)[C@H](CCC(N)=O)NC(=O)[C@H](CCC(N)=O)NC(=O)[C@@H]1CCCN1C(=O)[C@H](CCCCN)NC(=O)[C@@H]1CCCN1C(=O)[C@@H](N)CCCN=C(N)N)C(N)=O"
label_value = "High"

[[record]]
compound = "CSCC[C@H](NC(=O)[C@H](CC(C)C)NC(=O)CNC(=O)[C@H](Cc1ccccc1)NC(=O)[C@@H](NC(=O)[C@H](CCC(N)=O)NC(=O)[C@H](CCC(N)=O)NC(=O)[C@@H]1CCCN1C(=O)[C@H](CCCCN)NC(=O)[C@@H]1CCCN1C(=O)[C@@H](N)CCCN=C(N)N)C1CCc2cc3ccccc3cc21)C(N)=O (stereo partly drawn)"
label_value = "Mid"

[[record]]
compound = "CSCC[C@H](NC(=O)[C@H](CC(C)C)NC(=O)CNC(=O)[C@@H](NC(=O)[C@H](Cc1ccccc1)NC(=O)[C@H](CCC(N)=O)NC(=O)[C@H](CCC(N)=O)NC(=O)[C@@H]1CCCN1C(=O)[C@H](CCCCN)NC(=O)[C@@H]1CCCN1C(=O)[C@@H](N)CCCNC(=N)N)C(C)(C)SC)C(N)=O"
label_value = "Low"

[[record]]
compound = "CSCC[C@H](NC(=O)[C@H](CC(C)C)NC(=O)CNC(=O)[C@H](Cc1ccccc1)NC(=O)[C@H](CCSC)NC(=O)[C@H](CCC(N)=O)NC(=O)[C@H](CCC(N)=O)NC(=O)[C@@H]1CCCN1C(=O)[C@H](CCCCN)NC(=O)[C@@H]1CCCN1C(=O)[C@@H](N)CCCNC(=N)N)C(N)=O"
label_value = "High"

[[record]]
compound = "CSCC[C@H](NC(=O)[C@H](CC(C)C)NC(=O)CNC(=O)[C@H](Cc1ccccc1)NC(=O)[C@@H](NC(=O)[C@H](CCC(N)=O)NC(=O)[C@H](CCC(N)=O)NC(=O)[C@@H]1CCCN1C(=O)[C@H](CCCCN)NC(=O)[C@@H]1CCCN1C(=O)[C@@H](N)CCCNC(=N)N)C(c1ccccc1)c1ccccc1)C(N)=O"
label_value = "High"

[[record]]
compound = "CSCC[C@H](NC(=O)[C@H](CC(C)C)NC(=O)CNC(=O)[C@@H]1Cc2ccccc2CN1C(=O)[C@H](Cc1ccccc1)NC(=O)[C@H](CCC(N)=O)NC(=O)[C@H](CCC(N)=O)NC(=O)[C@@H]1CCCN1C(=O)[C@H](CCCCN)NC(=O)[C@@H]1CCCN1C(=O)[C@@H](N)CCCN=C(N)N)C(N)=O"
label_value = "High"

[[record]]
compound = "CSCC[C@H](NC(=O)[C@H](CC(C)C)NC(=O)CNC(=O)[C@H](CCSC)NC(=O)[C@H](Cc1ccccc1)NC(=O)[C@H](CCC(N)=O)NC(=O)[C@H](CCC(N)=O)NC(=O)[C@@H]1CCCN1C(=O)[C@H](CCCCN)NC(=O)[C@@H]1CCCN1C(=O)[C@@H](N)CCCNC(=N)N)C(N)=O"
label_value = "Low"

[[record]]
compound = "CSCC[C@H](NC(=O)[C@H](CC(C)C)NC(=O)[C@@H]1CCCN1C(=O)[C@@H](NC(=O)[C@H](Cc1ccccc1)NC(=O)[C@H](CCC(N)=O)NC(=O)[C@H](CCC(N)=O)NC(=O)[C@@H]1CCCN1C(=O)[C@H](CCCCN)NC(=O)[C@@H]1CCCN1C(=O)[C@@H](N)CCCN=C(N)N)C1c2ccccc2-c2ccccc21)C(N)=O (H-RPKPQQF[Gly(9-fluorenyl)]PLM-NH2)"
label_value = "Low"

[[record]]
compound = "CSCC[C@H](NC(=O)[C@H](CC(C)C)NC(=O)CNC(=O)[C@@H](NC(=O)[C@H](Cc1ccccc1)NC(=O)[C@H](CCC(N)=O)NC(=O)[C@H](CCC(N)=O)NC(=O)[C@@H]1CCCN1C(=O)[C@H](CCCCN)NC(=O)[C@@H]1CCCN1C(=O)[C@@H](N)CCCN=C(N)N)C(C)(C)C)C(N)=O"
label_value = "Low"

